- PROCEDURE_DETAILS: High-throughput drug toxicity screening in the BPDCN cell line Cal-1 (AID 1224825);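 note: cells exposed to compounds for 48 h; 100% = DMSO and 0% = bortezomib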
- ASSAY_SETUP: Cal-1 BPDCN cell viability, qHTS; at 45.8 µM (top of the series) unless noted
QUANTITY: viability (% of control)

- CNC(=O)c1cc(Oc2ccc(NC(=O)Nc3ccc(Cl)c(C(F)(F)F)c3)cc2)ccn1: 9.69%
- CN(C)CCc1c[nH]c2ccc(CS(=O)(=O)N3CCCC3)cc12: 93.3%
- CCC(=O)O[C@]1(C(=O)CCl)[C@@H](C)C[C@H]2[C@@H]3CCC4=CC(=O)C=C[C@]4(C)[C@@]3(F)[C@@H](O)C[C@@]21C: 47.1%
- CCOCC(O)COc1ccc(NC(=O)CC[S+](C)C)cc1 (stereo not given): 110%
- Cc1cccc(Nc2ccncc2S(=O)(=O)NC(=O)NC(C)C)c1: 107%

* * *

- Tested on: DFO2036
- PROCEDURE_DETAILS: qHTS profiling for inhibitors of Plasmodium falciparum proliferation (AID 504749); note: nearly all actives have a fitted effect of over 60% in size
- ASSAY_SETUP: P. falciparum in erythrocytes, SYBR Green DNA, 72 h; series mostly up to 28.7 µM
Inconclusive results are not listed. Activity calls are given as the source filed them. Calls follow the shape of the dose curve; as a rule, active = well fitted inhibition curve with a large enough effect; inconclusive = small, poorly fitted or top-dose-only effect; inactive = flat fitted curve, though single readings scatter.
Labels: TRUE = active, FALSE = inactive

* Cn1nnc2c(C(N)=O)ncn2c1=O | FALSE
* Cc1oc(=O)oc1CN1CCN(c2cc3c(cc2F)c(=O)c(C(=O)O)c2n3C(C)S2)CC1 (stereo not given) | TRUE
* Nc1nc(N)c2nc(CNc3ccc(C(=O)NC(CCC(=O)O)C(=O)O)cc3)cnc2n1 (stereo not given) | FALSE
* Cc1ccnc2c1NC(=O)c1cccnc1N2C1CC1 | FALSE
* COc1ccc(-c2ccc3cc(C(=O)O)ccc3c2)cc1C12CC3CC(CC(C3)C1)C2 | FALSE
* Cc1nnc(NS(=O)(=O)c2ccc(N)cc2)s1 | FALSE
* CC[C@H](NC(C)C)[C@H](O)c1ccc(O)c2[nH]c(=O)ccc12 | FALSE
* COc1cccc(N(C)C(=S)Oc2ccc3c(c2)CCCC3)n1 | FALSE
* O=C(O)c1cc(=O)[nH]c(=O)[nH]1 | FALSE
* COc1cc(NS(=O)(=O)c2ccc(N)cc2)nc(OC)n1 | FALSE
* CCc1cc(C(N)=S)ccn1 | FALSE
* CCCc1nc(C)c2c(=O)[nH]c(-c3cc(S(=O)(=O)N4CCN(CC)CC4)ccc3OCC)nn12 | FALSE
* CC[C@H](C)C(=O)O[C@H]1C[C@@H](C)C=C2C=C[C@H](C)[C@H](CC[C@@H]3C[C@@H](O)CC(=O)O3)[C@H]21 | FALSE
* COc1cc(NCc2ccc3nc(N)nc(N)c3c2C)cc(OC)c1OC | TRUE
* O=P(O)(O)C(O)(Cc1cccnc1)P(=O)(O)O | FALSE
* CCOC(=O)c1ccc(C#Cc2ccc3c(c2)C(C)(C)CCS3)nc1 | FALSE
* CNNCc1ccc(C(=O)NC(C)C)cc1 | FALSE
* CN1CCN(c2c(F)cc3c(=O)c(C(=O)O)cn(CCF)c3c2F)CC1 | FALSE
* C[C@@H](NCCCc1cccc(C(F)(F)F)c1)c1cccc2ccccc12 | TRUE
* CC(C)(Sc1cc(C(C)(C)C)c(O)c(C(C)(C)C)c1)Sc1cc(C(C)(C)C)c(O)c(C(C)(C)C)c1 | FALSE
* CC(C)NCC(O)c1ccc(NS(C)(=O)=O)cc1 (stereo not given) | FALSE
* C1CCC(C(CC2CCCCN2)C2CCCCC2)CC1 (stereo not given) | TRUE
* COc1cc([C@@H]2c3cc4c(cc3[C@H](O)[C@H]3COC(=O)[C@H]23)OCO4)cc(OC)c1OC | TRUE
* CC(C)OC(=O)C(C(=O)OC(C)C)=C1SC=CS1 | FALSE
* O=c1cc(O)c(Cl)c[nH]1 | FALSE
* CNS(=O)(=O)Cc1ccc2[nH]cc(CCN(C)C)c2c1 | FALSE
* CCOC(=O)[C@H](CCc1ccccc1)N[C@H]1CS[C@H](c2cccs2)CN(CC(=O)O)C1=O | FALSE
* C#CCN[C@@H]1CCc2ccccc21 | FALSE
* NC(N)=NC(N)=NCCc1ccccc1 | FALSE
* CN(C)c1ccc(C(=C2C=CC(=[N+](C)C)C=C2)c2ccc(N(C)C)cc2)cc1 | TRUE
* Nc1[nH]c(=O)ncc1F | FALSE
* COC(=O)Nc1nc2ccc(C(=O)c3ccccc3)cc2[nH]1 | FALSE
* CN(CCOc1ccc(CC2SC(=O)NC2=O)cc1)c1ccccn1 (stereo not given) | FALSE
* Nc1ccc(S(=O)(=O)Nc2ccccn2)cc1 | FALSE
* COc1nc(N)nc2c1ncn2[C@@H]1O[C@H](CO)[C@@H](O)[C@@H]1O | FALSE
